The reported numbers originate from PubChem BioAssay (NCI).

tested on: CAKI-1 renal; assay: NCI-60 one-dose screen, 48 h (100 = growth as untreated, 0 = no growth, -100 = all killed); conditions: 10 µM unless noted
Compounds without any hit were thinned out: in the full panel of roughly 83,000, 20% have a hit.
The entries below are paired with their reported growth.
Numeric answer only, unit % assumed.

Recorded growth, per entry:
q: Record request: growth value, item COc1ccc(C(=O)c2sc3nc(C)cc(C)c3c2N)cc1OC
a: 99.5

q: Record request: growth value, item O=C1CC(=NCC(=O)n2c(-c3ccccc3)nc3ccccc32)NN1
a: 75.9

Others:
q: Record request: growth value, item c1ccc(-c2cc3n4c(-c5ccccc5)nn(-c5ccccc5)c4cnc-3n2)cc1
a: 59.5

q: Record request: growth value, item Cc1ccc(NC(=O)C2CCC(CN3CCN(C)CC3)CC2)cc1Nc1nccc(-c2cccnc2)n1 (stereo not given)
a: 95.5

q: Record request: growth value, item O=C(CCCCC(=O)N/N=C\c1ccccc1O)N/N=C\c1ccccc1O
a: 14.7

q: Record request: growth value, item CC(O)CN1CC(O)=C(c2nc3ccccc3s2)C1=N (stereo not given)
a: 101

* * *

test system: SN12C renal; assay: NCI-60 one-dose screen, 48 h (100 = growth as untreated, 0 = no growth, -100 = all killed); details: 10 µM unless noted
Compounds without any hit were thinned out: in the full panel of roughly 83,000, 20% have a hit.
READOUT: growth (%)
Numeric answer only, unit % assumed.

q: Request - read-out growth | tested on SN12C renal | compound CCC(=O)c1ccc(Cl)s1
a: 101

q: Request - read-out growth | tested on SN12C renal | compound NC(=O)c1cc(Cl)ccc1NC(=O)/C=C/c1ccccc1
a: 49

q: Request - read-out growth | tested on SN12C renal | compound Cc1ccc2c(c1)C(=O)/C(=C/c1cccc(OCC(=O)c3ccc(Cl)cc3)c1)CS2
a: 88.4

q: Request - read-out growth | tested on SN12C renal | compound COc1ccc(/C=C/c2nc3ccccc3nc2/C=C/c2ccc(OC)cc2)cc1
a: 101

q: Request - read-out growth | tested on SN12C renal | compound C=C(C)[C@@H]1CC[C@]2(C(=O)OC)CC[C@]3(C)[C@H](CC[C@@H]4[C@@]5(C)C/C(=C/c6ccc(OC)cc6)C(=O)C(C)(C)[C@@H]5CC[C@]43C)[C@@H]12
a: 84.9

q: Request - read-out growth | tested on SN12C renal | compound CC1SC(c2ccc(N(C)C)cc2)N(NC(=O)C(O)(c2ccccc2)c2ccccc2)C1=O (centres undefined)
a: 110

Others:
q: Request - read-out growth | tested on SN12C renal | compound COc1ccc(-n2nc(C)c3c(Nc4ccc(NC(=O)Nc5cc(C(F)(F)F)ccc5F)cc4)ncnc32)cc1
a: 44.9

q: Request - read-out growth | tested on SN12C renal | compound Cc1ccccc1COc1ccc(-c2onc(C)c2-c2ccc(Cl)cc2)cc1
a: 68.3

q: Request - read-out growth | tested on SN12C renal | compound COc1cc2c(cc1OC)C(Sc1ccc(SC)cc1)c1c(nc(N)c(C#N)c1N)O2 (centres undefined)
a: -88

* * *

test system: MCF7 breast; assay: NCI-60 one-dose screen, 48 h; conditions: 10 µM unless noted
Compounds without any hit were thinned out: in the full panel of roughly 83,000, 20% have a hit. Calls of active or inactive are those of the source. Rule for the calls: active = growth percent below 10; inactive = the rest.
Hi! Could you answer with just one of these? class 1 = active, class 0 = inactive

Completed entries (count: 5):
q: Answer briefly: the call reported for Cc1ccc2c(C(C[N+](=O)[O-])c3ccco3)c(-c3ccccc3)[nH]c2c1 (stereo not given) in this assay.
a: class 0

q: Answer briefly: the call reported for O=[N+]([O-])c1ccc2c(c1)Cc1cc(F)ccc1-2 in this assay.
a: class 0

q: Answer briefly: the call reported for Cc1cc(C)nc(SC2=C(Nc3cccc(Cl)c3)C(=O)N(Cc3ccccc3)C2=O)n1 in this assay.
a: class 0

q: Answer briefly: the call reported for C#CCOc1ccc2ncnc(Nc3cccc(CNC(=O)C=C)c3)c2c1 in this assay.
a: class 0

q: Answer briefly: the call reported for COc1ccc(/C=C\c2cc(OC)c(OC)c(OC)c2)cc1OCC(=O)Nc1ccc2nc(C)sc2c1 in this assay.
a: class 0

Others:
q: Answer briefly: the call reported for CCOC(=O)c1sc2nc(-c3cccc(OC)c3)nc(N3CCOCC3)c2c1C in this assay.
a: class 0

q: Answer briefly: the call reported for Cc1ccc(NS(=O)(=O)c2ccc(-c3cnc(C4CC4)o3)cc2)cc1C in this assay.
a: class 0

q: Answer briefly: the call reported for CCN1CCC2(CC1)NC(=O)c1c(c3ccc(Cl)c(Cl)c3n1C)C2C#N (stereo not given) in this assay.
a: class 0

q: Answer briefly: the call reported for CCOc1ccc(-n2nc(C(=O)Nc3ccccc3)nc2-c2cc(OC)c(OC)c(OC)c2)cc1 in this assay.
a: class 0

q: Answer briefly: the call reported for O=C1NC(=S)N[C@H]1CC(=O)n1cnc2ccccc21 in this assay.
a: class 0

q: Answer briefly: the call reported for CN(C)CCCNc1c2ccccc2nc2ccccc12 in this assay.
a: class 0

q: Answer briefly: the call reported for COc1cccc(-c2nc3sccn3c2-c2ccnc(NCCCNS(=O)(=O)c3c(Cl)cccc3Cl)c2)c1 in this assay.
a: class 0

q: Answer briefly: the call reported for Nc1nc2ncc(CCNc3ccc(C(=O)O)cc3)nc2c(=O)[nH]1 in this assay.
a: class 0

q: Answer briefly: the call reported for CC(C)(C)N1CCC1CN (stereo not given) in this assay.
a: class 0

q: Answer briefly: the call reported for O=C(CCCCC(=O)N/N=C\c1ccccc1O)N/N=C\c1ccccc1O in this assay.
a: class 0

q: Answer briefly: the call reported for CS(=O)(=O)c1ccc(-n2nc(-c3ccc(Br)cc3)c3ccccc3c2=O)cc1 in this assay.
a: class 0

q: Answer briefly: the call reported for CCC#CC[C@H](O)C/C=C1/C(=O)C=C[C@@H]1C/C=C\CCCC(=O)OC in this assay.
a: class 0

q: Answer briefly: the call reported for CC1=C[C@H]2c3c(c(O)c(O)c4oc5ccccc5c(=O)c34)[C@H](c3cc(O)c(O)c4oc5ccccc5c(=O)c34)[C@H]2C(C)(C)C1 in this assay.
a: class 1

q: Answer briefly: the call reported for COc1cc2c(cc1O)CC[C@@H]1[C@@H]2CC[C@]2(C)[C@@H](OCCCN(C)C)CC[C@@H]12 in this assay.
a: class 1

q: Answer briefly: the call reported for CN1CCN(Cc2ccc(NC(=O)c3cncc(C#Cc4cncn5ccnc45)c3)cc2C(F)(F)F)CC1 in this assay.
a: class 0

* * *

system: KM12 colon; experiment: NCI-60 one-dose screen, 48 h (100 = growth as untreated, 0 = no growth, -100 = all killed); details: 10 µM unless noted
Compounds without any hit were thinned out: in the full panel of roughly 83,000, 20% have a hit.
The entries below are paired with their reported growth.
Numeric answer only, unit % assumed.

Recorded growth, per entry:
q: Record request: growth value, item O=C(COc1ccc(-c2nc3cc(Cl)c(Cl)cc3[nH]2)cc1)N=Nc1c(O)[nH]c2ccccc12
a: -38.8

q: Record request: growth value, item CCc1nc(N)nc(N)c1C#CC(C)c1ccc(-c2ccncc2)cc1Cl (stereo not given)
a: 12.7

q: Record request: growth value, item COc1cc2c(cc1-c1c(C)noc1C)ncc1nc(C3CCOCC3)n([C@@H](C)COC(F)F)c12
a: 48.8

q: Record request: growth value, item O=c1ccccc(-c2ccc(Br)cc2)c1O
a: 24.6

Now turn to the next molecule.
q: Record request: growth value, item CCN(CC)c1ccc(-c2cc(-c3cc(OC)c(OC)c(OC)c3)nc(N3CCOCC3)c2C#N)cc1
a: 27.1

* * *

system: NCI/ADR-RES ovarian; assay: NCI-60 one-dose screen, 48 h; conditions: 10 µM unless noted
Compounds without any hit were thinned out: in the full panel of roughly 83,000, 20% have a hit. Active and inactive are the calls of the source. How the source made its calls: active means growth percent below 10; inactive means the rest.
Hi! Could you answer with just one of these? active, inactive

q: Answer briefly: the call reported for C[n+]1ccccc1/C=C/c1ccc2cccc(O)c2n1 in this assay.
a: inactive

q: Answer briefly: the call reported for NC(N)=N/N=C(/c1ccccc1)c1ccc(F)cc1 in this assay.
a: active

q: Answer briefly: the call reported for CC/C=C\C[C@H]1C/C=C2/C(=O)C=C[C@H]2C/C=C\CCCC(=O)O1 in this assay.
a: inactive

Others:
q: Answer briefly: the call reported for CC[C@]1(O)C[C@@H]2CN(CCc3c([nH]c4ccccc34)[C@@](C(=O)OC)(c3cc4c(cc3OC)N(C)[C@H]3[C@@](O)(C(N)=O)[C@H](O)[C@]5(CC)[C@@H]6C[C@@H]6CN6CC[C@]43[C@@H]65)C2)C1 in this assay.
a: active

q: Answer briefly: the call reported for COc1cc(CNc2oc(-c3ccccc3)c(-c3ccccc3)c2C#N)cc(CN2CCN(C)CC2)c1O in this assay.
a: inactive

q: Answer briefly: the call reported for Clc1ccc2nc3nc4ccc[nH]c4cc3c2c1 in this assay.
a: inactive

q: Answer briefly: the call reported for Cc1ccc(-c2onc3c(=O)[nH]nc(-c4ccccc4)c23)cc1 in this assay.
a: inactive

q: Answer briefly: the call reported for CNC(=O)c1cc(Oc2ccc(NC(=O)Nc3ccc(Cl)c(OC(F)(F)F)c3)c(F)c2)ccn1 in this assay.
a: inactive

q: Answer briefly: the call reported for COc1cccc(-c2nn(C(C)(C)C)cc2-c2ccnc(NCCCNS(=O)(=O)c3ccc(C)cc3)c2)c1 in this assay.
a: inactive

q: Answer briefly: the call reported for O=C(N/N=C/c1c[nH]c2ccccc12)c1cc(-c2ccccc2)on1 in this assay.
a: inactive

q: Answer briefly: the call reported for CN1CCN(c2ccc3nc(-c4ccc(OCCCCN5CCN(CCCCN6C(=O)c7cccc8cccc(c78)C6=O)CC5)cc4)[nH]c3c2)CC1 in this assay.
a: inactive

q: Answer briefly: the call reported for C=C1C(=O)O[C@H]2[C@H]1CC/C(C=Nc1ccc(C(F)(F)F)cc1N)=C\CC[C@@]1(C)O[C@@H]21 in this assay.
a: inactive

q: Answer briefly: the call reported for CCOC(=O)c1sc(Nc2ccc(Cl)cc2)nc1C in this assay.
a: inactive

q: Answer briefly: the call reported for COc1ccc(CN2c3ccccc3Sc3ccccc32)cc1O in this assay.
a: inactive

q: Answer briefly: the call reported for CCOc1ccc(C(C)=O)cc1NC(=O)c1cccc(-c2nnn(CC)n2)c1 in this assay.
a: inactive

q: Answer briefly: the call reported for Cc1cc(C)nc(SC2=C(Nc3ccc(O)cc3)C(=O)N(Cc3ccccc3)C2=O)n1 in this assay.
a: inactive

q: Answer briefly: the call reported for COc1ccc(-c2cc(=O)c3c(OC)c4ccoc4cc3o2)cc1 in this assay.
a: inactive

q: Answer briefly: the call reported for O=[N+]([O-])c1cnc(N2CCN(CC3CC3)CC2)nc1N1CCN(CC2CC2)CC1 in this assay.
a: inactive

q: Answer briefly: the call reported for CC(C)CSc1nc(N)nc2c1ncn2C1OC(CO)C(O)C1O (stereo unspecified) in this assay.
a: inactive

q: Answer briefly: the call reported for C=C(C)C1CC(O)C2(C)CCCC3C2C1CC(C)C3(C)CC/C(C)=C/C(O)C1CCC(=O)c2c(OC)cc(OC)cc21 (stereo unspecified) in this assay.
a: inactive

q: Answer briefly: the call reported for COc1ccc(-n2nc(C)c3c(Oc4ccc(NC(=O)Nc5c(Cl)cccc5Cl)cc4)ncnc32)cc1 in this assay.
a: inactive
